Test system: Saccharomyces cerevisiae;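 further: PSI is a weighted mean of sequencing reads over stability bins, variants kept only with over 10 reads, mCherry proximal and sfGFP distal, peptide attached via GGGS linker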
Experiment: protein stability index of tFT-peptide fusion (C-terminal peptide) (PSI (0-1 scale)); higher = more stable (slower turnover)
Conditions: genetic background: cdc34-1; temperature: 37 C
Recorded Endpoint: protein stability index

Here's what some known entries look like.
> print(dat)
     seq.string  result
1  FLVPLSPMLLSA   0.446
2  IFFYPFLIFCFV   0.251
3  LGVVVGGVRGVG    0.43
4  LLTAARAQLFAV    0.65
5  SSVCLYWCCLFV   0.522
6  QIDYSVYIFALG   0.431
7  LVCLVFVRSSLV   0.268
8  TVRVVMLRLLFT   0.452

# next sequence below
protein stability index recorded for this sequence, SCLRVYFSVVVS , is 0.231

The measured values listed here are drawn from the supplement of paper PMC10724198.
